TARGET UNDER TEST: rat TRPV1 (Rattus norvegicus (Rat))
Sequence (O35433 whole entry): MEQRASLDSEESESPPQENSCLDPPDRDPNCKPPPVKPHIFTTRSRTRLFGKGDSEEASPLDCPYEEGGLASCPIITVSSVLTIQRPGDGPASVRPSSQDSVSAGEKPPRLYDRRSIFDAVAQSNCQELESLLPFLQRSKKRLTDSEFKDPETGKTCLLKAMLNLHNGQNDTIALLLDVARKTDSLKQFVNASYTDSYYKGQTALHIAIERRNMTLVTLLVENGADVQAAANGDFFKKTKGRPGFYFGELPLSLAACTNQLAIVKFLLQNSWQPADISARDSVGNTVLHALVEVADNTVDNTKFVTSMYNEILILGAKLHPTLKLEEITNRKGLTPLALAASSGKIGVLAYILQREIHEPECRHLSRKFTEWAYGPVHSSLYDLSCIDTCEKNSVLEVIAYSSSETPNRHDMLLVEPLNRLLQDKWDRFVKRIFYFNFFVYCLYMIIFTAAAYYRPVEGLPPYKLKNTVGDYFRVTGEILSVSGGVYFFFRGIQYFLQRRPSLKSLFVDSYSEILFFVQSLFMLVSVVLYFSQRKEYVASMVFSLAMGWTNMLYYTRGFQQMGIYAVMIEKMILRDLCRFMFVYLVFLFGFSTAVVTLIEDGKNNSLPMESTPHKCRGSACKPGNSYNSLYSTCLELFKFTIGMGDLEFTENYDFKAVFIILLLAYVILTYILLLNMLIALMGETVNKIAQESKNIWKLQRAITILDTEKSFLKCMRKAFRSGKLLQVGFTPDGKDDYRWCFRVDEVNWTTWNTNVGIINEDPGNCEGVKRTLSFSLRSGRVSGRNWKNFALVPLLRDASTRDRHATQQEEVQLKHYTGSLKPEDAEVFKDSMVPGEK
CONDITION DESCRIPTION: read-out: Rat IC50
Counter-ions that a name gives are not always drawn.
METRIC: IC50

- COMPOUND: "CN(C)c1nc2c(c(Nc3ccc(C(C)(C)C#N)cc3)n1)CCN(c1ncccc1C(F)(F)F)CC2 [Example 65B, trifluoroacetic acid salt]"
  IC50: "650 nM"
- COMPOUND: "CN1CCCc2ccc(Nc3nc(OC4CCOCC4)nc4c3CCN(c3ncccc3C(F)(F)F)CC4)cc21 [Example 329]"
  IC50: "120 nM"

# input for lookup
Looking up CN1CCCc2ccc(Nc3nc(N4CCCCC4)nc4c3CCN(c3ncccc3C(F)(F)F)CC4)cc21 [Example 163, hydrochloride salt] , I see its IC50 listed as 120 nM
